Test system: DU-145
assay_explanation: NCI tumour cell line growth inhibition, 48 h
Active and inactive are the calls of the source. No stated cut-off is given here; in the data, active = GI50 up to about 1.1 µM and inactive = higher.
In this exercise, the only acceptable responses are active, inactive

Examples with answers:
Query: recorded result category for "CN(C)CCc1c2c(nc3ccccc13)C(=O)c1cccnc1C2=O" in this test active

"Cc1ccc(-c2c(-c3ccccc3)[nH]c(C)c2C(=O)ONC(=O)c2ccccc2)cc1" , same question. inactive

And C=CCC(CNC(=O)OCc1ccccc1)OC(=O)OCc1ccccc1 (centres undefined) ? inactive

Consider next the compound "NS(=O)(=O)c1nn2c(Br)c(-c3ccccc3)nc2s1" in the same way. inactive

Then what about the compound "COc1c(NC(C)=O)c2ccccc2c2ccccc12" ? inactive

Next:
Outcome? "Clc1ccccc1CN1COc2c(cc(Cl)c3cccnc23)C1" inactive

// next record "Cc1ccc(-c2n[nH]c(=O)n2N)cc1" inactive

And "Nc1cccc2cc(S(=O)(=O)Nc3ccc(C(=O)O)cc3)ccc12" ? inactive

Cited source: ChEMBL document CHEMBL1201862
